# Assay Text: Water solubility of compound by HPLC analysis
# Format: physicochemical
Record form. Attribute: solubility. Fill in for each entry.

Complete the entry with solubility for `COc1ccc(OC)c2c1c(OC)cc1c(=O)cc(-c3ccc(N)nc3)oc12`
311 µg/mL

In one line, give reported solubility of the entry `COc1ccc(OC)c2c1c(OC)cc1c(=O)cc(-c3ccc(F)cn3)oc12` .
< 5 µg/mL

Please supply the value of reported solubility for the item O=c1cc(-c2ccccc2)oc2c1ccc1ccccc12 [ALPHA-NAPHTHOFLAVONE]
< 5 µg/mL

----------
Task for the reader: assign each of the following molecules its reported IC50.
# Test System: UniProtKB Q16678
# Sequence (Q16678 whole entry): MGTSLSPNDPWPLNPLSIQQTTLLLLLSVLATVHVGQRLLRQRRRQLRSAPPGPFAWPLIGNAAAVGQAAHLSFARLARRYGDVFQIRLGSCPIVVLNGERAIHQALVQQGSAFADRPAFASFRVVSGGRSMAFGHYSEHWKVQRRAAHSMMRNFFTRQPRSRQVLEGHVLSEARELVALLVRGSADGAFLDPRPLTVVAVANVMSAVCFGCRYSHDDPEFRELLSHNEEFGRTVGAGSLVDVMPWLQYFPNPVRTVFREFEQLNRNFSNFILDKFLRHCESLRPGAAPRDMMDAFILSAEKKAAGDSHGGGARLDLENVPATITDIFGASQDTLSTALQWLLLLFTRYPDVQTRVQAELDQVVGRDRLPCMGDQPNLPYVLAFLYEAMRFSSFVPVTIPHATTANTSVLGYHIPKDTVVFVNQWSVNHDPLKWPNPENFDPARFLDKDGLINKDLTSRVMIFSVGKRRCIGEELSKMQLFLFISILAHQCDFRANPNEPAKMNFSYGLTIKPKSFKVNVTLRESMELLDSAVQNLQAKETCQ
# Assay Text: Inhibition of recombinant human CYP1B1 using 7-ethoxyresorufin as substrate after 35 mins in presence of NADP+ by EROD assay
The answer consists of two parts: a number and, after it, its unit.

Fill in reported IC50 for this entry: `COc1ccc(OC)c2c1c(OC)cc1c(=O)cc(-c3cncc(C)c3)oc12`
1.3 nM

Return IC50 (reported value) for this molecule: `COc1ccc(OC)c2c1c(OC)cc1c(=O)cc(-c3ccc4cc[nH]c4c3)oc12`
0.95 nM

Indicate the recorded IC50 value for this molecule: `COc1ccc(OC)c2c1c(OC)cc1c(=O)cc(-c3ccco3)oc12`
1.2 nM

Indicate the recorded IC50 value for this molecule: `COc1ccc(OC)c2c1c(OC)cc1c(=O)cc(-c3cccnc3)oc12`
1 nM

Determine its reported IC50: `COc1ccc(OC)c2c1c(OC)cc1c(=O)cc(-c3ccc4ccccc4n3)oc12`
1 nM
